Hi there, I'd appreciate the recorded IC50 for every entry that follows.
SYSTEM_TESTED: Programmed cell death protein 1/Programmed cell death 1 ligand 1 (Homo sapiens, UniProt Q9NZQ7)
Sequence (Q15116 whole entry): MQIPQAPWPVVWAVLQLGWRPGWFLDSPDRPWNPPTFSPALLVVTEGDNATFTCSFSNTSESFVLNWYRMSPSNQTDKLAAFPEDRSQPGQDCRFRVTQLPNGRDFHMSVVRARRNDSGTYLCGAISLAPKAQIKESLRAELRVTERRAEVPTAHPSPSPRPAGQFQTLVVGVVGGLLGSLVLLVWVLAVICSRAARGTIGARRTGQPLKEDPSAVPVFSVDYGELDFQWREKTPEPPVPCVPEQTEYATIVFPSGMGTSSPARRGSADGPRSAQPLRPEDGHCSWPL
Sequence (Q9NZQ7 whole entry): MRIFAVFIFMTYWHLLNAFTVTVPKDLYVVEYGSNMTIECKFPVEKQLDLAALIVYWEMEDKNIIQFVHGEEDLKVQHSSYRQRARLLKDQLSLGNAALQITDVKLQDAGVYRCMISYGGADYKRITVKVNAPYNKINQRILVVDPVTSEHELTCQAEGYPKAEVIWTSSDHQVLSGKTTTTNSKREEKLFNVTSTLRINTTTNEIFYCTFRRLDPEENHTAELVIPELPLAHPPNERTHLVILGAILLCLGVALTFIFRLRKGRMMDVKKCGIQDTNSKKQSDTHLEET
TEST_DETAILS: Inhibition of PD-1/PD-L1 (unknown origin) interaction incubated for 15 mins by HTRF assay
Type: protein-complex assay
Please reply with the bare figure in nM and do not write the unit itself.

Q: Which value of IC50 has been reported for COc1nc(OCc2cccc(-c3ccccc3)c2C)ccc1CNCc1cn([C@@H]2O[C@H](CO)[C@@H](O)[C@H](O)[C@H]2O)nn1 in the records?
Ans: 56.1

Q: Which value of IC50 has been reported for COc1cc(OCc2cccc(-c3ccccc3)c2C)cc(OC)c1CNCc1cn([C@@H]2O[C@H](CO)[C@@H](O)[C@H](OC)[C@H]2O)nn1 in the records?
Ans: 355

Q: Which value of IC50 has been reported for COc1ccc(CNCc2cn([C@@H]3O[C@H](CO)[C@@H](O)[C@H](O)[C@H]3O)nn2)cc1OCc1cccc(-c2ccccc2)c1C in the records?
Ans: 1760

###

TEST_DETAILS: Cytotoxicity against human Jurkat T cells assessed as cell viability at 10 uM incubated for 48 hrs by MTT assay
Assay type: toxicity, cell-based
CONDITION_CONTEXT: read-out: Activity
MEASURED_METRIC: viability at 48 h, 10 µM (%)
Please reply with the bare figure in % and do not write the unit itself.

Q: Which value of viability at 48 h, 10 µM has been reported for COc1cc(OCc2cccc(-c3ccccc3)c2C)cc(OC)c1CNCCO in the records?
Ans: 0

Q: Which value of viability at 48 h, 10 µM has been reported for COc1nc(OCc2cccc(-c3ccccc3)c2C)ccc1CNCCO in the records?
Ans: 0

###

TEST_DETAILS: Observed MRT infinity in CD-1 mouse at 5 mg/kg, ip measured upto 24 hrs by UPLC analysis
Format: ADME, organism-based
CONDITION_CONTEXT: in vivo
MEASURED_METRIC: MRT inf

Q: Which value of MRT inf has been reported for COc1cc(OCc2cccc(-c3ccccc3)c2C)cc(OC)c1CNCCO[C@H]1O[C@H](CO)[C@@H](O)[C@H](O)[C@@H]1O in the records?
Ans: 1.9 h

###

TEST_DETAILS: Half life in CD-1 mouse at 5 mg/kg, ip measured upto 24 hrs by UPLC analysis
Format: ADME, organism-based
CONDITION_CONTEXT: in vivo
MEASURED_METRIC: half-life (h)
Please reply with the bare figure in h and do not write the unit itself.

Q: Which value of half-life has been reported for COc1cc(OCc2cccc(-c3ccccc3)c2C)cc(OC)c1CNCCO[C@H]1O[C@H](CO)[C@@H](O)[C@H](O)[C@@H]1O in the records?
Ans: 5.83

###

Hi there, I'd appreciate the recorded AUC(0-t) at 24 h for every entry that follows.
TEST_DETAILS: AUClast in CD-1 mouse at 5 mg/kg, iv measured upto 24 hrs by UPLC analysis
Format: ADME, organism-based
Set-up: dose 5 mg/kg, time < 24 hrs, route iv
CONDITION_CONTEXT: in vivo
Field: value (include unit after the number)

Q: Which value of AUC(0-t) at 24 h has been reported for COc1cc(OCc2cccc(-c3ccccc3)c2C)cc(OC)c1CNCCO[C@H]1O[C@H](CO)[C@@H](O)[C@H](O)[C@@H]1O in the records?
Ans: 1090 ng·h/mL

Q: Which value of AUC(0-t) at 24 h has been reported for COc1nc(OCc2cccc(-c3ccccc3)c2C)ccc1CNCCO[C@@H]1O[C@H](CO)[C@@H](O)[C@H](O)[C@H]1NC(C)=O in the records?
Ans: 2160 ng·h/mL

Just for reference, ChEMBL document CHEMBL5338801 is where these values come from.
